Assay: self-splicing fitness, log relative to wild type (ln ratio); higher = more splicing; Tetrahymena group I intron in knt gene, E. coli kanamycin selection, DiMSum; sequences stand for … in CUCUCU…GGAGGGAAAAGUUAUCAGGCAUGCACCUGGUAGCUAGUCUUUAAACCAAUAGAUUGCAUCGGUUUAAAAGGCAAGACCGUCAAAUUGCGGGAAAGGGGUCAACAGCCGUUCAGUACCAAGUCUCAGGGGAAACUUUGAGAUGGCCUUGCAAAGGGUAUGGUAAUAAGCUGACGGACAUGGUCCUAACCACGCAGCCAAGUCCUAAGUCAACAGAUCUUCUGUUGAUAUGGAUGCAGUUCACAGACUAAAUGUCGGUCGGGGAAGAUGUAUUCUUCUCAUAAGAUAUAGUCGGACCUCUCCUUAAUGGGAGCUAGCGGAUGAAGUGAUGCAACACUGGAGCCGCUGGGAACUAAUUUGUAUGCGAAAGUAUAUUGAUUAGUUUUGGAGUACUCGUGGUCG;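 also: selection with 25 µg/mL kanamycin versus none on LB agar overnight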
Details: 30 °C
// map self-splicing fitness (ln) onto a label; ranges band A = under -3, band B = from -3 up to -2, band C = -2 and over

query-sequence | discrete-label
CUCAAGCAAUAUUACGACAG | band C
AAGCAGCAAUAUUACGACGA | band C
UUCCAGCAAUAUUACGCAAG | band C

Dear colleague, I would appreciate it if you could identify the bin for UGCCAGCAAUAUUACGGGUA and reply at your convenience.
band B

Can you check UAUAAGCAAUAUUACGUUAU next?
band B

Can you check UACGAGCAAUAUUACGAGGC next?
band A

Can you check GCGAAGCAAUAUUACGCUUC next?
band A

Can you check CCCCAGCAAUAUUACGCAGG next?
band A

Can you check AGGAAGCAAUAUUACGACAU next?
band C

* * *

Test: self-splicing fitness, log relative to wild type (ln ratio); higher = more splicing; Tetrahymena group I intron in knt gene, E. coli kanamycin selection, DiMSum; sequences stand for … in CUCUCU…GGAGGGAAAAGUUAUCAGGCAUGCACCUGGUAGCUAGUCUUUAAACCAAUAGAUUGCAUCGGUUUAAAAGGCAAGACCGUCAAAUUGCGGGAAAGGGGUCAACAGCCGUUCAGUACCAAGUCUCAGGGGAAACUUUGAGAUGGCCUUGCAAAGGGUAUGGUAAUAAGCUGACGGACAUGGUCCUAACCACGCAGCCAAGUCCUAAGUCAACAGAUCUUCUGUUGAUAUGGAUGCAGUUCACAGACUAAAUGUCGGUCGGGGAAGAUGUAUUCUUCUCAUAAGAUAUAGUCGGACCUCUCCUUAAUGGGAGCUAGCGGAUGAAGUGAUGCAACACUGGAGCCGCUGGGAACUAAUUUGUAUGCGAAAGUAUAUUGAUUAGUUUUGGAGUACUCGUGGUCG
Settings: 37 °C
Would you please tag the item 1 (yes) when its self-splicing fitness (ln) is -2 or above, and 0 (no) when it is below?

# check: self-splicing fitness (ln) of CUUUAGCAAUAUUACGCAGA is greater than or equal to -2
0 (no)

Can you check UUUCAGCAAUAUUACGGAGC next?
0 (no)

Can you check CAAAAGCAAUAUUACGCCUU next?
1 (yes)

* * *

Assay: self-splicing fitness, log relative to wild type (ln ratio); higher = more splicing; Tetrahymena group I intron in knt gene, E. coli kanamycin selection, DiMSum; sequences stand for … in CUCUCU…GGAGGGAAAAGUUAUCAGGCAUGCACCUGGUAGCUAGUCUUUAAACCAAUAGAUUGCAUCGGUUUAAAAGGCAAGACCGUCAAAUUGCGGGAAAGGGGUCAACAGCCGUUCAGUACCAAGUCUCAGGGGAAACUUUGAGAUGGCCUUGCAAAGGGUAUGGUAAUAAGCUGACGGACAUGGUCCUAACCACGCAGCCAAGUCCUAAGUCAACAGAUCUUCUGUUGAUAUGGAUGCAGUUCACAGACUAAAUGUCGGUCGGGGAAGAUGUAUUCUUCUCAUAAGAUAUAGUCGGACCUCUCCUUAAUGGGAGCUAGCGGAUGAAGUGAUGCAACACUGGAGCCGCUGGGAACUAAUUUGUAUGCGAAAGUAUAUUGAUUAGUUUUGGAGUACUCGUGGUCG
Conditions: 37 °C
measured-endpoint: self-splicing fitness (ln)
Could you keep your reply to the number by itself?

Worked cases, self-splicing fitness (ln) given:
query-sequence | endpoint-result
AAUCAGCAAUAUUACGUAUU | -0.697
GUGCAGCAAUAUUACGCGUC | -1.4
UGCCAGCAAUAUUACGUGGA | -1.71
GUCGAGCAAUAUUACGUAAA | -0.959
CCUUAGCAAUAUUACGCGCU | -3.41
CCUAAGCAAUAUUACGGGAG | -2.93
UGGAAGCAAUAUUACGCAAU | -0.664
CUGCAGCAAUAUUACGAGCG | 0.667

Consider the sequence CGUGAGCAAUAUUACGUCUC and give its measured self-splicing fitness (ln).
-2.29

* * *

Assay: self-splicing fitness, log relative to wild type (ln ratio); higher = more splicing; Tetrahymena group I intron in knt gene, E. coli kanamycin selection, DiMSum; sequences stand for … in CUCUCU…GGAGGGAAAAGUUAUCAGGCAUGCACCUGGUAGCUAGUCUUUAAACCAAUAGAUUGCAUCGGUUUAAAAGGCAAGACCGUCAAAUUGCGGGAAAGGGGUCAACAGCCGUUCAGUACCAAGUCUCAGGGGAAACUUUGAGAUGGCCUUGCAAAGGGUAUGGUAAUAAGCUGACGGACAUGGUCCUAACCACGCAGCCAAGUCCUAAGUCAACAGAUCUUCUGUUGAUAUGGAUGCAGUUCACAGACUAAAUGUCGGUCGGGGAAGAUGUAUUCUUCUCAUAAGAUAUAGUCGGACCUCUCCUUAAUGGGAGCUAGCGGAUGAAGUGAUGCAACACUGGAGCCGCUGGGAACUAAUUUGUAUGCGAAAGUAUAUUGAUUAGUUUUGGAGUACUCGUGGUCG
Settings: 30 °C
Would you please tag the item 1.0 when its self-splicing fitness (ln) is -3 or above, and 0.0 when it is below?

These recorded examples may help you get a feel for the data.
query-sequence | discrete-label
AACUAGCAAUAUUACGGUAA | 1.0
GGCAAGCAAUAUUACGGGCU | 1.0
GUCGAGCAAUAUUACGACAA | 1.0
UAUUAGCAAUAUUACGGCCG | 1.0
CAUCAGCAAUAUUACGGGAC | 0.0

# check: self-splicing fitness (ln) of UUGGAGCAAUAUUACGCGAG is greater than or equal to -3
1.0

Can you check GUACAGCAAUAUUACGCAGU next?
0.0

Can you check CUUUAGCAAUAUUACGCCCU next?
0.0

Can you check CUCCAGCAAUAUUACGUGGC next?
0.0

Can you check UAUCAGCAAUAUUACGUUGC next?
0.0

* * *

Assay: self-splicing fitness, log relative to wild type (ln ratio); higher = more splicing; Tetrahymena group I intron in knt gene, E. coli kanamycin selection, DiMSum; sequences stand for … in CUCUCU…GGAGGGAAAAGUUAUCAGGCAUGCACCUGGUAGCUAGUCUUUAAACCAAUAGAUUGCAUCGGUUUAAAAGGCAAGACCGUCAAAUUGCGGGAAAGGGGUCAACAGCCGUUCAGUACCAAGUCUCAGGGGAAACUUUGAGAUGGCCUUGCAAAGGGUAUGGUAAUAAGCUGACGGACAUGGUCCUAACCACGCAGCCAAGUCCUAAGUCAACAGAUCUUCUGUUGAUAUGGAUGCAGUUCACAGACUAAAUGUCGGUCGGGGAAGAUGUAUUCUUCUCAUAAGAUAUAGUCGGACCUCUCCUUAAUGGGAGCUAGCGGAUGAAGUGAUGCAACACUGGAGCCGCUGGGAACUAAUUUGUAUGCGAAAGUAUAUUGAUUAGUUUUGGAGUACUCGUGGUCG
Conditions: 37 °C
Would you please tag the item 1.0 when its self-splicing fitness (ln) is -2 or above, and 0.0 when it is below?

These recorded examples may help you get a feel for the data.
query-sequence | discrete-label
ACUAAGCAAUAUUACGUCAG | 1.0
UCUGAGCAAUAUUACGAUCG | 1.0

# check: self-splicing fitness (ln) of GCGCAGCAAUAUUACGCCUA is greater than or equal to -2
1.0

Can you check CUCCAGCAAUAUUACGAACG next?
1.0

Can you check CAGCAGCAAUAUUACGGCCG next?
1.0

* * *

Assay: self-splicing fitness, log relative to wild type (ln ratio); higher = more splicing; Tetrahymena group I intron in knt gene, E. coli kanamycin selection, DiMSum; sequences stand for … in CUCUCU…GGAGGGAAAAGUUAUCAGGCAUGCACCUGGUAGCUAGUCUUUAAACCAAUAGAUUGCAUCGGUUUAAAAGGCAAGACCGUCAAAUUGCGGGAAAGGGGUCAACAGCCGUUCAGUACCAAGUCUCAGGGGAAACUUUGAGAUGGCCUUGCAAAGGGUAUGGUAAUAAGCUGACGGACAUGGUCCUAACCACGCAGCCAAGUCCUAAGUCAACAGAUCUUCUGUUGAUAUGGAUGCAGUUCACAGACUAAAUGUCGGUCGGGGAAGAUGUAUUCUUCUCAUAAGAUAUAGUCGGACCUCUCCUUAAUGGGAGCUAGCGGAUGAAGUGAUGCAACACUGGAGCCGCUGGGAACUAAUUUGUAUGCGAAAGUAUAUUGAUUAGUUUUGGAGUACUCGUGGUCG
Settings: 37 °C
// map self-splicing fitness (ln) onto a label; ranges interval 1 (below -2), interval 2 (-2 to below -0.7), interval 3 (-0.7 or more)

These recorded examples may help you get a feel for the data.
query-sequence | discrete-label
UAGCAGCAAUAUUACGUUUA | interval 3
UACGAGCAAUAUUACGUUGC | interval 1
UAUCAGCAAUAUUACGAUAA | interval 3
CAGUAGCAAUAUUACGACGG | interval 3
AGUGAGCAAUAUUACGUACC | interval 3
CCACAGCAAUAUUACGAUAA | interval 1
GACAAGCAAUAUUACGGGUC | interval 1
GCCCAGCAAUAUUACGUACG | interval 2

Dear colleague, I would appreciate it if you could identify the bin for AGUCAGCAAUAUUACGUCUA and reply at your convenience.
interval 2

Can you check UCUUAGCAAUAUUACGCCGA next?
interval 3

Can you check GUAGAGCAAUAUUACGUACA next?
interval 2
